- Tested on: KM20L2 colon
- procedure-summary: NCI tumour cell line growth inhibition, 48 h
# reported TGI; entries follow
measurement-kind: TGI

| molecule | measurement-kind | result |
| --- | --- | --- |
| COC(=O)CCC(=O)NC1C2CC3CC(C2)CC1C3 (stereo unspecified) | TGI | > 100 µM |
| CCCCCC(O)C1C(=O)OC(C)C(O)/C=C/C=C/C=C/C=C/C=C(\C)C(O)C(O)C(O)CC(O)CC(O)CC(O)CC(O)CC1O (stereo unspecified) | TGI | 5.64 µM |
| COc1ccc2c(c1)CCC(OS(=O)(=O)CC13CCC(CC1=O)C3(C)C)C2=O (stereo unspecified) | TGI | 37.8 µM |
| COc1ccc(CCNCCCC2c3ccccc3-c3ccccc32)cc1OC | TGI | 12.4 µM |
| Nc1n[nH]c(CCc2nc(N)n[nH]2)n1 | TGI | > 100 µM |
| CCOC(=O)C1=C(Nc2ccc(Cl)c(Cl)c2)OC/C1=N\NS(=O)(=O)c1ccc(C)cc1 | TGI | > 100 µM |
| CC(=O)Oc1ccc(C(c2ccc(OC(C)=O)cc2)c2ccccn2)cc1 | TGI | > 100 µM |
| O=C(Nc1ccn(CCI)c(=O)n1)c1ccccc1 | TGI | > 100 µM |
| C[C@H]1C(=O)CC[C@]2(C)CCC(C(C)(C)O)CC12O (stereo partly specified) | TGI | > 100 µM |
| COC(=O)C1=CC2OC1(C)CCC2=O (stereo unspecified) | TGI | > 100 µM |
| Cc1cccc(C(C)(C)C)c1NC(=O)CC1Sc2ccccc2NC1=O (stereo unspecified) | TGI | > 100 µM |
| COc1ccc2nc(NC(=O)C(=O)C(C#N)c3ccc(Cl)c(Cl)c3)sc2c1 (stereo unspecified) | TGI | > 100 µM |
| O=C(O)C1=C(C(=O)Nc2ccc(NC(=O)C3=C(C(=O)O)C4C=CC3C4)cc2)C2C=CC1C2 | TGI | > 100 µM |
| O=C(CCN1CCOCC1)C(=Cc1ccccc1)C(=O)CCN1CCOCC1 | TGI | 25 µM |
| Cc1cc(N(CCC#N)CCC#N)ccc1C=Nc1ccc(C(=O)NN2C(=O)/C(=C/c3ccc(N(CCC#N)CCC#N)cc3)N=C2c2cc([N+](=O)[O-])ccc2Cl)cc1 | TGI | > 100 µM |
| O=C(NO)c1ccc(O)c(O)c1 | TGI | > 100 µM |

----------
- System: SK-MEL-28 melanoma
- procedure-summary: NCI tumour cell line growth inhibition, 48 h

| compound | target-entity | TGI |
| --- | --- | --- |
| Cc1ccccc1N=NC(C(=O)c1ccccc1)C(=O)c1ccccc1 | SK-MEL-28 melanoma | > 100 µM |
| COC(=O)c1ccc(NCc2cc(O)ccc2O)cc1 | SK-MEL-28 melanoma | 34.8 µM |
| C=C1c2c(Cl)ccc(O)c2C(O)=C2C(=O)[C@]3(O)C(O)=C(C(N)=O)C(=O)[C@@H](N(C)C)[C@@H]3[C@@H](O)[C@H]12 | SK-MEL-28 melanoma | 4.45 µM |
| O=c1[nH]c2c(c(=O)[nH]1)SSC2 | SK-MEL-28 melanoma | 18.7 µM |
| CCCC[C@H]1CCN2C[C@@H](O)[C@@H](O)[C@H]2[C@@H]1O | SK-MEL-28 melanoma | > 100 µM |
| COP(=O)(OC)/C(=C\c1cn(C(c2ccccc2)(c2ccccc2)c2ccccc2)cn1)NC(C)=O | SK-MEL-28 melanoma | > 100 µM |
| COc1cc2c3c(n(CCCN=[N+]=[N-])c(=O)c2cc1OC)-c1ccc(N(C)C)cc1C3=O | SK-MEL-28 melanoma | > 100 µM |
| C=CCn1c(-c2ccc(-c3cs/c(=N\N=O)n3CC=C)cc2)cs/c1=N\N=O | SK-MEL-28 melanoma | > 100 µM |
| CCc1nc(N)nc(N)c1-c1ccc(Cl)c(N=CN(C)C)c1 | SK-MEL-28 melanoma | > 100 µM |
| COC1OC2COC(c3ccccc3)OC2C(O)C1Br (configuration not stated) | SK-MEL-28 melanoma | > 100 µM |
| COC(=O)C1=CC2OC1(C)CCC2=O (configuration not stated) | SK-MEL-28 melanoma | > 100 µM |
| O=C1CC(c2ccc(Cl)cc2)Oc2ccccc21 (configuration not stated) | SK-MEL-28 melanoma | > 100 µM |
| O=C(CC1C(=O)Nc2ccccc2S1=O)Nc1ccc(Cl)cc1 (configuration not stated) | SK-MEL-28 melanoma | > 100 µM |
| COc1cc2c(c(OC3OC(CO)C(O)C(O)C3O)c1)C(=O)CC(c1ccc(O)cc1)O2 (configuration not stated) | SK-MEL-28 melanoma | > 100 µM |
| O=C(Nc1ccc(Cl)c(Cl)c1)OCCN1c2ccccc2Sc2ccccc21 | SK-MEL-28 melanoma | > 10 µM |
| CCn1c2ccccc2c2cc(C(O)c3cccc4ncccc34)ccc21 (configuration not stated) | SK-MEL-28 melanoma | > 100 µM |
| Cc1cc2c(cc1N)C(C)C1(CCC(=O)N2Cc2ccccc2)OCCO1 (configuration not stated) | SK-MEL-28 melanoma | > 100 µM |
| Cc1ccc(S(=O)(=O)c2c(N)n(CCN(C)C)c3nc4ccccc4nc23)cc1 | SK-MEL-28 melanoma | > 100 µM |
| COc1ccc(OC)c(Nc2nc(-c3c(C)nc4sccn34)cs2)c1 | SK-MEL-28 melanoma | > 100 µM |
| Nc1n[nH]c(CCc2nc(N)n[nH]2)n1 | SK-MEL-28 melanoma | > 100 µM |
| CC(=O)OCC(Br)C1(C)CCC(C(C)(C)Br)O1 (configuration not stated) | SK-MEL-28 melanoma | > 100 µM |
| CCN(CC)CCSCCCNc1c2ccc(Cl)cc2nc2ccc(OC)cc12 | SK-MEL-28 melanoma | 3.8 µM |

----------
- Tested on: HCC-2998 colon
- procedure-summary: NCI tumour cell line growth inhibition, 48 h

| compound | TGI |
| --- | --- |
| COCCOC(=O)C(C)=[N+]=[N-] | > 100 µM |
| Cc1cccc(C(C)(C)C)c1NC(=O)CC1Sc2ccccc2NC1=O (stereo not given) | > 100 µM |
| COc1ccc(-c2nn(-c3cccc(NC(=O)c4ccc(N5CCOCC5)c(C(F)(F)F)c4)c3)cc2-c2ccncc2)cc1Cl | > 50 µM |
| COc1cc2c(c(OC3OC(CO)C(O)C(O)C3O)c1)C(=O)CC(c1ccc(O)cc1)O2 (stereo not given) | > 100 µM |
| COc1ccccc1CNC(=O)[C@H](Cc1ccc(O)cn1)NC(C)=O | > 100 µM |
| O=C(O)/C=C/C(=O)N1C/C(=C\c2ccccc2)C(=O)/C(=C/c2ccccc2)C1 | 13.1 µM |
| O=c1[nH]n(Cc2ccccc2Cl)c2ccccc12 | > 100 µM |
| Cc1ncc([N+](=O)[O-])n1CCNC(=O)Cn1c([N+](=O)[O-])cnc1C | > 100 µM |
| CCOC(=O)/C(C#N)=C/c1ccc2c(c1)CC1(C2)Cc2cc(CC)c(C(C)O)cc2C1 (stereo not given) | > 80.9 µM |
| COc1ccc(CCNCCCC2c3ccccc3-c3ccccc32)cc1OC | 3.88 µM |

----------
- System: A498 renal
Outcome codes: Yes for active, No for inactive

| mol | answer-label |
| --- | --- |
| O=S(=O)(NCCNc1nccc(-c2c(-c3ccc(F)cc3)nc3sccn23)n1)c1ccccc1 | No |
| [Cl][Cd][Cl] | No |
| c1ccc(CNc2nc(Nc3ccccc3)nc3ccccc23)cc1 | No |
| CC(C)COC(=O)c1ccc2[nH]c(O)c(C=Nc3ccc(S(N)(=O)=O)cc3)c2c1 | No |
| ClCc1ccc(Cn2cnc3c(Cl)nc(Cl)nc32)cc1 | No |
| COc1cc(/C=C/C(=O)c2cccnc2Nc2ccc(F)cc2)cc(OC)c1OC | No |
| COc1ccc(OC)c(Nc2nc(-c3c(C)nc4sccn34)cs2)c1 | No |
| O=C(Nc1ccc(I)cc1F)c1cc(Cl)ccc1O | Yes |
| Cc1cccc2c(N)c3ccccc3nc12 | No |
| COC(=O)[C@@H](C)C[C@H](Cc1ccccc1)NC(=O)c1csc([C@@H](C[C@H](C(C)C)N(C)C(=O)[C@H](C)NC(=O)[C@H]2CCCCN2C)OC(C)=O)n1 | No |
| CC(C)CCN[C@@H]1CCc2cc(O)c(N3CC(=O)NS3(=O)=O)c(F)c2C1 | No |
| Cn1cnc([N+](=O)[O-])c1Sc1ncn[nH]1 | No |

----------
- Test system: UACC-62 melanoma
Examples of molecules with documented GI50 follow.

| mol | GI50 |
| --- | --- |
| N#Cc1cc(S(=O)(=O)Nc2nc3ccccc3s2)c(SCc2ccccc2)cc1Cl | 11.8 µM |
| COC(=O)[C@@H](C)C[C@H](Cc1ccccc1)NC(=O)c1csc([C@@H](C[C@H](C(C)C)N(C)C(=O)[C@H](C)NC(=O)[C@H]2CCCCN2C)OC(C)=O)n1 | 1.27 µM |
| CCN(CC)CCOc1ccc(C(=O)/C=C\c2ccc(Cl)cc2Cl)cc1 | 2.08 µM |
| Cc1cc(OCc2nnc3n2N=C(c2ccc(Cl)cc2Cl)CS3)ccc1Cl | 34.4 µM |
